All values here come from patent US11530244B2.

# EXPERIMENTAL SYSTEM: human PCSK9 / human LDLR EGFa domain interaction (Homo sapiens (Human), UniProt Q8NBP7)
# Sequence (Q8NBP7 153-692): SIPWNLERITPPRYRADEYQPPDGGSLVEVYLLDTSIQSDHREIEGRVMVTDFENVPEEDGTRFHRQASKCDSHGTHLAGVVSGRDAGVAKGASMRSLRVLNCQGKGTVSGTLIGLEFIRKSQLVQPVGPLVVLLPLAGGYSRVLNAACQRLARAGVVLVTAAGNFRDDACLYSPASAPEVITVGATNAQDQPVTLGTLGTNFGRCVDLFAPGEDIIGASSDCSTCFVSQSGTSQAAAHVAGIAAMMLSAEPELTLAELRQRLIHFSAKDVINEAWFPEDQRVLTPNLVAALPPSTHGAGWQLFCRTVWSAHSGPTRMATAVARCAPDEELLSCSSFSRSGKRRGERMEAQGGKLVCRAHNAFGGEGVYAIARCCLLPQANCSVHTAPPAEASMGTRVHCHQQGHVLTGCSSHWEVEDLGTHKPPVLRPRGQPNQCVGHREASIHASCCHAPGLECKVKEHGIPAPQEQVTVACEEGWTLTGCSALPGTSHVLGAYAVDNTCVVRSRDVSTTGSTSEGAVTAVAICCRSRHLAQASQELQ
# Sequence (Q8NBP7 31-152 partner): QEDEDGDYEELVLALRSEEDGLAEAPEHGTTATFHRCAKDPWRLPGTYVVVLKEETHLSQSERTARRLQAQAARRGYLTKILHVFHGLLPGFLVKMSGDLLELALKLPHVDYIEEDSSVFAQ
# ASSAY EXPLANATION: TR-FRET assay of inhibition of the PCSK9-LDLR protein-protein interaction
# Type: binding
# PROTOCOL CONDITIONS: TR-FRET, 20 nM human PCSK9, 20 nM human LDLR EGFa domain, 2 hours room temperature; read-out: IC50
Starred links: 1 amine or outer side, 2 acyl side, 3 side chain; linkers in the order of their positions; H or OH if unused. Positions of bridges follow the written chain, without caps; N, C: chain ends. Non-standard residues stand in square brackets, D forms with d. Residues, ends and D or L forms follow the SMILES beside them. Trp(5-F) = N[C@@H](Cc1c[nH]c2ccc(F)cc12)C(=O)O; mXylylene = c1cc(C[*:1])cc(C[*:2])c1; AEF = NCCOc1ccc(C[C@H](N)C(=O)O)cc1; Glutaryl = O=C(CCCC(=O)[*:2])[*:1]; αMeP = C[C@@]1(C(=O)O)CCCN1; X2 = O=C(C[*:2])[*:1]; Aib = CC(C)(N)C(=O)O; Mpa = O=C(O)CCS
EXPERIMENTAL READOUT: IC50

The examples below pair each entry with its known result.
>  <COMPOUND>
COc1ccc(C[C@@H]2NC(=O)[C@H](Cc3cnc[nH]3)NC(=O)[C@H](CC(=O)O)NC(=O)[C@H](Cc3c[nH]c4ccc(F)cc34)NC(=O)[C@H](Cc3c[nH]c4ccc(F)cc34)NC(=O)[C@@H](C)NC(=O)CCCC(=O)NCCOc3ccc(cc3)C[C@@H](C(N)=O)NC(=O)[C@]3(C)CCCN3C2=O)cc1 [Compound 400] ([dA][Trp(5-F)][Trp(5-F)]DHY(Me)[αMeP][AEF]-NH2; linker N-8 via Glutaryl)

>  <IC50>
100 to 1000 nM

$$$$
>  <COMPOUND>
CC1(C)NC(=O)[C@H](Cc2c[nH]c3ccc(F)cc23)NC(=O)CNC(=O)[C@H](CCCCN)NC(=O)CCSCc2cccc(c2)CSC[C@@H](C(N)=O)NC(=O)[C@@H]2CCCN2C(=O)[C@H](Cc2ccc(O)cc2)NC(=O)[C@H](Cc2cnc[nH]2)NC(=O)[C@H](CC(=O)O)NC1=O [Compound 317] ([Mpa]KG[Trp(5-F)][Aib]DHYPC-NH2; linker 1-10 via mXylylene)

>  <IC50>
21000 to 50000 nM

$$$$
>  <COMPOUND>
CC(=O)N[C@H]1CCCCNC(=O)COc2ccc(cc2)C[C@@H](C(N)=O)NC(=O)[C@]2(C)CCCN2C(=O)[C@H](Cc2ccc(O)cc2)NC(=O)[C@H](Cc2cnc[nH]2)NC(=O)[C@H](CC(=O)O)NC(=O)[C@H](Cc2c[nH]c3ccc(F)cc23)NC(=O)[C@H](Cc2c[nH]c3ccc(F)cc23)NC(=O)CNC1=O [Compound 365] (Ac-KG[Trp(5-F)][Trp(5-F)]DHY[αMeP]Y-NH2; linker 1-9 via X2)

>  <IC50>
0.1 to 100 nM

$$$$
>  <COMPOUND>
CC(=O)N[C@H]1CCCn2cc(nn2)CCC[C@@H](C(N)=O)NC(=O)[C@]2(C)CCCN2C(=O)[C@H](Cc2ccc(O)cc2)NC(=O)[C@H](Cc2cnc[nH]2)NC(=O)[C@H](CC(=O)O)NC(=O)[C@H](Cc2c[nH]c3ccc(F)cc23)NC(=O)[C@H](Cc2c[nH]c3ccc(F)cc23)NC(=O)CNC(=O)[C@H](C)NC1=O

>  <IC50>
1000 to 12100 nM

$$$$
>  <COMPOUND>
COc1ccc(C[C@@H]2NC(=O)[C@@H]3CC/C=C/CC[C@H](NC(=O)[C@H](Cc4c[nH]c5ccc(F)cc45)NC(=O)[C@H](Cc4c[nH]c5ccc(F)cc45)NC(=O)[C@@H](C)NC(=O)[C@H](CCCCN)NC(=O)CCSCc4cccc(c4)CSCCNC(=O)[C@]4(C)CCCN4C2=O)C(=O)N3)cc1

>  <IC50>
1000 to 12100 nM

$$$$

// IC50 value for COc1ccc(C[C@@H]2NC(=O)[C@@H]3CCCCCCCO[C@H]4C[C@@H](C(=O)N3)N(C4)C(=O)[C@H](Cc3c[nH]c4ccc(F)cc34)NC(=O)[C@H](Cc3c[nH]c4ccc(F)cc34)NC(=O)[C@@H](C)NC(=O)[C@H](CCCCN)NC(=O)CCSCc3cccc(c3)CSC[C@@H](C(N)=O)NC(=O)[C@]3(C)CCCN3C2=O)cc1 : 100 to 1000 nM
